# procedure.summary: Concentration required to inhibit the enzyme cathepsin
observation.type: pKi
// scale note: pKi = -log10(conc_M); give the bare number

Could you tell me which pKi is on file for CCC[C@H](NC(=O)[C@H](Cc1ccc(OC)cc1)NC(=O)CC(C)C)C(=O)N[C@@H](CC1CCCCC1)C(=O)C(F)(F)CN ?
5.40
